target.of.assay: CDK2/Cyclin E (Homo sapiens, UniProt P24941)
Construct: purchased Eurofins 14-475
protocol.notes: Biochemical CDK inhibition assay (Caliper mobility shift), CDK2/Cyclin E
condition.summary: read-out: CDK2/cyclin E1 IC50
pIC50: −log10 of the molar value.
The following compounds are shown together with reported pIC50 values.

Here are 3 compounds together with their reported answers.
CC(C)(CO)n1cc(-c2nc(Nc3ccc(S(N)(=O)=O)cc3F)ncc2C(F)(F)F)cn1 [Example 22]: ≥ 8.00
NS(=O)(=O)c1ccc(Nc2ncc(C(F)(F)F)c(-c3cnn(CC4(O)COC4)c3)n2)c(F)c1 [Example 41]: 7.70 to 8.00
CC(C)(O)Cn1cc(-c2nc(Nc3ccc(S(N)(=O)=O)cc3)ncc2F)cn1 [Example 18]: ≥ 8.00

For the compound shown here, NS(=O)(=O)c1ccc(Nc2ncc(C(F)(F)F)c(-c3cnn(C4COC4)c3)n2)c(F)c1 [Example 43] , give the reported pIC50.
7.52 to 7.70

For the compound shown here, CC(C)(O)Cn1cc(-c2nc(Nc3ccc(S(N)(=O)=O)cc3Cl)ncc2Cl)cn1 [Example 23] , give the reported pIC50.
≥ 8.00

For the compound shown here, Cc1c(S(N)(=O)=O)ccc(Nc2ncc(C(F)(F)F)c(-c3cnn(CC(C)(C)O)c3)n2)c1F [Example 21] , give the reported pIC50.
≥ 8.00

For the compound shown here, CC(C)(O)Cn1cc(-c2nc(Nc3ccc(S(N)(=O)=O)cc3F)ncc2C(F)F)cn1 [Example 11] , give the reported pIC50.
≥ 8.00

For the compound shown here, COc1cc(S(N)(=O)=O)ccc1Nc1ncc(Cl)c(-c2cnn(CC(C)(C)O)c2)n1 [Example 28] , give the reported pIC50.
≥ 8.00

----------
The following molecules are shown together with reported pIC50 values.
target.of.assay: CDK1/Cyclin B1, GST-tag (Homo sapiens, UniProt P06493)
Construct: GST; purchased BPS 40454
Sequence (P06493 whole entry): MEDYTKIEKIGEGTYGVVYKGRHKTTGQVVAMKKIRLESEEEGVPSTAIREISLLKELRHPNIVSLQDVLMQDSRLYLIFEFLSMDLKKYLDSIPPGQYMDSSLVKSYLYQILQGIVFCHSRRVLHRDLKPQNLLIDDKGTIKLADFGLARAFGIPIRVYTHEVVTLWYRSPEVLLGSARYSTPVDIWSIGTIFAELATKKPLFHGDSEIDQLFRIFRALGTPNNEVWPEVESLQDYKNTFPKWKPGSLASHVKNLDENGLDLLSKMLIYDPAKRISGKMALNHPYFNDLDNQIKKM
Sequence (P14635 whole entry partner): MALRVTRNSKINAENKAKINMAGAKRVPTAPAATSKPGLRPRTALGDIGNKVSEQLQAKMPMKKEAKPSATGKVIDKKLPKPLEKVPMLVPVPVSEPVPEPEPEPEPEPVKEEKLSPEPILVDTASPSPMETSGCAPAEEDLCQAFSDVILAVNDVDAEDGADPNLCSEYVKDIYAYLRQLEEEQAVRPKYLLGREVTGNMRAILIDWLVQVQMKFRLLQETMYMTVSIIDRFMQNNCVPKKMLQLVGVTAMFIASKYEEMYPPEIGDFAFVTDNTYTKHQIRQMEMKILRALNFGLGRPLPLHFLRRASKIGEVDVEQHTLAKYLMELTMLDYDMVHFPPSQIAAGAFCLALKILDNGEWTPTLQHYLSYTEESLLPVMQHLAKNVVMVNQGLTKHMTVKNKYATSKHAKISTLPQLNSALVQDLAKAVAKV
protocol.notes: Biochemical CDK inhibition assay (Caliper mobility shift), CDK1/Cyclin B1
pIC50: −log10 of the molar value.

For the molecule shown here, CC(C)(O)Cn1cc(-c2nc(Nc3ccc(S(N)(=O)=O)cc3F)ncc2F)cn1 , give the reported pIC50.
6.30 to 7.00

For the molecule shown here, Cc1cc(S(N)(=O)=O)ccc1Nc1ncc(C(F)(F)F)c(-c2cnn(CC(C)(C)O)c2)n1 , give the reported pIC50.
6.30 to 7.00

For the molecule shown here, CC(C)(O)Cn1cc(-c2nc(Nc3ccc(S(N)(=O)=O)cc3F)ncc2C(F)F)cn1 , give the reported pIC50.
6.30 to 7.00

For the molecule shown here, C[C@@H](O)Cn1cc(-c2nc(Nc3ccc(S(N)(=O)=O)cc3F)ncc2C(F)(F)F)cn1 , give the reported pIC50.
6.30 to 7.00

For the molecule shown here, Cc1cnc(Nc2ccc(S(N)(=O)=O)cc2)nc1-c1cnn(CC(C)(C)O)c1 , give the reported pIC50.
6.30 to 7.00

For the molecule shown here, CC(C)(O)Cn1cc(-c2nc(Nc3ccc(S(N)(=O)=O)cc3)ncc2Cl)cn1 , give the reported pIC50.
> 7.00

For the molecule shown here, NS(=O)(=O)c1ccc(Nc2ncc(C(F)(F)F)c(-c3cnn(CC(O)C4CC4)c3)n2)c(F)c1 (centres unmarked) , give the reported pIC50.
≤ 6.30

For the molecule shown here, C[C@H](O)Cn1cc(-c2nc(Nc3ccc(S(N)(=O)=O)cc3F)ncc2C(F)(F)F)cn1 , give the reported pIC50.
≤ 6.30

Each recorded value in this set is attributed to patent US12668585B2.
